- Tested On: human JAK1 (a.a. 837-1142) (Homo sapiens, UniProt P23458)
- Construct: human JAK1 (a.a. 837-1142); His tag (N); made in house; host or cells: insect cells (baculovirus)
- Sequence (P23458 849-1154): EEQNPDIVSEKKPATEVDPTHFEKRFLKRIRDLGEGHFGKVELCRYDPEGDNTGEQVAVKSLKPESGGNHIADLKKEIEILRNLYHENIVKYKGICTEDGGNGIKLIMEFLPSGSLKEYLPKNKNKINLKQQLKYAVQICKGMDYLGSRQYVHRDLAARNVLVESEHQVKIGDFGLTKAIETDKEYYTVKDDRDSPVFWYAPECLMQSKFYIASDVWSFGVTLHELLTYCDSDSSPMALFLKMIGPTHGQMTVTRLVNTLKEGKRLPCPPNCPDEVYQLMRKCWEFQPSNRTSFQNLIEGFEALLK
- Assay Procedure: In vitro JAK kinase assay (HTRF, phosphorylation of a biotinylated peptide), JAK1
- Format: biochemical
- Run Conditions: Table B1; read-out: JAK1 IC50
pIC50: −log10 of the molar value. Structures can show the parent of a compound that is named as a salt.
Assay Metric: pIC50

molecule="O=C(Nc1ccc2cc1CCc1cccc(c1)Nc1ncc(Cl)c(n1)N2)c1ccc(C(F)(F)F)cc1 [Example B75, trifluoroacetate]" tested_on="human JAK1 (a.a. 837-1142) (Homo sapiens, UniProt P23458)" measurement=8.33
molecule="O=C(Nc1ccc2cc1CCc1cccc(c1)Nc1ncc(Cl)c(n1)N2)c1ccno1 [Example B53, trifluoroacetate]" tested_on="human JAK1 (a.a. 837-1142) (Homo sapiens, UniProt P23458)" measurement=8.55
molecule=CC(C)(C)OC(=O)N1CC[C@H](NC(=O)Nc2ccc3cc2CCc2cccc(c2)Nc2ncc(Cl)c(n2)N3)C1 tested_on="human JAK1 (a.a. 837-1142) (Homo sapiens, UniProt P23458)" measurement=8.44

A. Clc1cnc2nc1Nc1cc(cc(CN3CCN(Cc4cc(Br)cs4)CC3)c1)CCc1cccc(c1)N2 [Example B196, tris(trifluoroacetate)]
B. O=S(=O)(Nc1ccc2cc1CCc1cccc(c1)Nc1ncc(Cl)c(n1)N2)c1cccc(Cl)c1 [Example B138, trifluoroacetate]
C. O=C(Nc1ccc2cc1CCc1cccc(c1)Nc1ncc(Cl)c(n1)N2)c1cnc2ccccc2n1 [Example B72, bis(trifluoroacetate)]
Query: Number of molecules to sort: 3. Sort criterion: pIC50, ascending. Form entry: labels listed in requested order.
Result: C, A, B

---

- Tested On: human JAK1 (a.a. 837-1142) (Homo sapiens, UniProt P23458)
- Construct: human JAK1 (a.a. 837-1142); His tag (N); made in house; host or cells: insect cells (baculovirus)
- Assay Procedure: In vitro JAK kinase assay (HTRF, phosphorylation of a biotinylated peptide), JAK1
- Type: biochemical
- Run Conditions: Table B1; read-out: JAK1 IC50
pIC50: −log10 of the molar value. Where a name gives a salt, the structure may show the parent alone.
Assay Metric: pIC50

molecule="Cc1cc(C(=O)N2CCC(CN(C)Cc3ccc4cc3CCc3cncc(c3)Nc3ncc(Cl)c(n3)N4)CC2)no1 [Example B344, tris(trifluoroacetate)]" assay_metric=pIC50 measurement=7.85
molecule="Cc1nc(S(=O)(=O)Nc2ccc3cc2CCc2cccc(c2)Nc2ncc(Cl)c(n2)N3)cn1C [Example B151, bis(trifluoroacetate)]" assay_metric=pIC50 measurement=8.54

a. NS(=O)(=O)N1CCC(NC(=O)Nc2ccc3cc2CCc2cccc(c2)Nc2ncc(Cl)c(n2)N3)CC1 [Example B183, trifluoroacetate]
b. N#Cc1ccccc1N1CCN(C(=O)Nc2ccc3cc2CCc2cncc(c2)Nc2ncc(Cl)c(n2)N3)CC1 [Example B300, tris(trifluoroacetate)]
c. CNC(=O)Nc1ccc2cc1CCc1cncc(c1)Nc1ncc(Cl)c(n1)N2 [Example B135, bis(trifluoroacetate)]
d. N#Cc1cccc(C(=O)Nc2ccc3cc2CCc2cccc(c2)Nc2ncc(Cl)c(n2)N3)c1 [Example B65, trifluoroacetate]
Query: Reorder: pIC50, max to min. Form entry: labels listed in requested order.
Result: c, a, d, b
(c: 9.16, a: 8.68, d: 8.47, b: 7.80)

Hey, just so you know, these numbers are from patent US8871753B2.
